So I've got a bunch of compounds here, and I need their EC50 values.
target: Glycogen synthase kinase-3 beta (Homo sapiens); test: concentration-response blocking of human GSK3B – biochemical, luminescence, cell-free homogeneous, retest, dose response (AID 434954)

For this compound ( COc1ccc(C(=O)c2coc3ccc(O)cc23)cc1 [MLS001198628] ), measured EC50 is 13.2 µM

For this compound ( Cc1cccc(NC(=O)C(C)n2cc([N+](=O)[O-])cn2)n1 (stereo unspecified) ), measured EC50 is > 300 µM

For this compound ( Clc1ccccc1CN1CCN(c2cccc3[nH]ccc23)CC1 ), measured EC50 is > 300 µM

For this compound ( CCn1c(SCC(=O)Nc2ccccc2Cl)nnc1C1CC1 ), measured EC50 is > 300 µM

For this compound ( CCCCc1c(O)nc(SCC(=O)c2ccccc2)n(-c2ccccc2OC)c1=O ), measured EC50 is > 300 µM

For this compound ( O=C(c1noc2c1CCc1ccccc1-2)N1CCOCC1 ), measured EC50 is > 300 µM

For this compound ( CCOC(=O)C1(Cc2cccc(F)c2)CCN(Cc2cn(CC)nc2C)CC1 ), measured EC50 is > 300 µM

For this compound ( O=C(NCc1ccco1)C(=O)c1cn(CC(=O)N2CCCC2)c2ccccc12 ), measured EC50 is > 300 µM

For this compound ( COc1ccc(CNCCC(c2ccc(F)cc2)c2ccc(OC)cc2)cc1 (stereo unspecified) ), measured EC50 is > 300 µM

For this compound ( O=C(NCC(c1ccco1)N1CCc2ccccc2C1)c1ccccc1Cl (stereo unspecified) ), measured EC50 is > 300 µM

For this compound ( COc1ccc(-c2nn(CCC#N)cc2CN=O)cc1OC ), measured EC50 is > 300 µM

For this compound ( COC(=O)C1=C(C)N(Cc2ccccc2)C(NCc2ccc(OC)cc2)=N[C@H]1c1cccc(F)c1 [MLS000829932] ), measured EC50 is > 300 µM

For this compound ( Cc1nc(Nc2ccccc2)sc1C(=O)c1ccccc1 ), measured EC50 is 19.8 µM

For this compound ( Cc1ccc2c(c1)cc1c(O)nncn12 [MLS000551564] ), measured EC50 is > 300 µM

For this compound ( Nc1nc(NCCCN2CCOCC2)nc(NCc2ccccc2)c1[N+](=O)[O-] ), measured EC50 is 8.32 µM

For this compound ( Cc1nccc(-c2cccc(NC(=O)c3ccccc3Cl)c2)n1 [MLS000859188] ), measured EC50 is > 300 µM

For this compound ( COc1ccc2nc3c(cc2c1)c(NC(=O)CC(C)C)nn3CC(C)C ), measured EC50 is > 300 µM

For this compound ( CCOC(=O)N1CCN(S(=O)(=O)c2cc(Br)cc3c2N(C(=O)C2CC2)CC3)CC1 ), measured EC50 is > 300 µM

For this compound ( O=C(NN=CC1=CC(=O)C(=O)CC1)NN=CC1=CC(=O)C(=O)CC1 ), measured EC50 is 13.3 µM

For this compound ( CC(C)CC(=O)Nc1ncc([N+](=O)[O-])s1 [MLS001043214] ), measured EC50 is 4.86 µM

For this compound ( O=C(/[O+]=N/[CH-]c1ccc(N2CCCCC2)c([N+](=O)[O-])c1)c1cccc(Cl)c1 ), measured EC50 is > 300 µM

For this compound ( Cc1ccc(C(=O)Nc2ccc(S(=O)(=O)NCc3ccco3)cc2)cc1 [SMR000123393] ), measured EC50 is > 300 µM

For this compound ( COc1ccc(CNC(=O)CN(Cc2cccs2)C(=O)CCC(=O)Nc2ccccn2)cc1 [MLS000687650] ), measured EC50 is 13.4 µM

For this compound ( O=C(NCCc1nnc2ccc(NCC3CCCO3)nn12)c1ccccc1 (stereo unspecified) ), measured EC50 is > 300 µM

For this compound ( Cc1ccc(CNc2nc(N)c([N+](=O)[O-])c(Nc3ccc(F)cc3)n2)cc1 ), measured EC50 is > 300 µM

For this compound ( O=C1Nc2cc(C(=O)NCC3CCCO3)ccc2S/C1=C/c1ccccc1F (stereo unspecified) ), measured EC50 is > 300 µM

For this compound ( CSc1nc(SCC(N)=O)c2c3c(sc2n1)CN(C)CC3 ), measured EC50 is 5.08 µM

For this compound ( COc1cc(C(=O)N2CCN(c3ccccn3)CC2)cc(OC)c1OC [SMR000518691] ), measured EC50 is 45.9 µM

For this compound ( COCCOC(=O)C(C#N)c1nc2ccccc2nc1N1CCN(Cc2ccccc2)CC1 (stereo unspecified) [MLS000078656] ), measured EC50 is > 300 µM

For this compound ( O=c1oc(-c2cccs2)nc2sc3c(c12)CCC3 [MLS000107331] ), measured EC50 is > 300 µM

For this compound ( O=C1C(=O)N(c2ccccn2)C(c2ccc(Br)cc2)C1C(=O)c1ccc(Br)cc1 (stereo unspecified) ), measured EC50 is > 300 µM

For this compound ( O=C(Nc1cccc(Cl)c1)c1ccc(NCCCN2CCOCC2)c([N+](=O)[O-])c1 [SMR000194818] ), measured EC50 is > 300 µM

For this compound ( CC(=O)Nc1cc(-c2ccc(Cl)cc2)n[nH]1 ), measured EC50 is 23.8 µM

For this compound ( Nc1ccccc1Nc1cc(-c2ccccc2)[nH]n1 ), measured EC50 is > 300 µM

For this compound ( O=C(Nc1ncnc2sc3c(c12)CCCC3)c1ccncc1 ), measured EC50 is 42.4 µM

For this compound ( O=C(Nc1ccc(O)c2c(=O)cc(-c3ccccc3Cl)oc12)c1cccc(Cl)c1 ), measured EC50 is 87.4 µM

###

target: Glycogen synthase kinase-3 beta (Homo sapiens, UniProt P49841); assay: concentration-response blocking of human GSK3B – biochemical, luminescence, cell-free homogeneous, retest, dose response (AID 434954)
Sequence (P49841 whole entry): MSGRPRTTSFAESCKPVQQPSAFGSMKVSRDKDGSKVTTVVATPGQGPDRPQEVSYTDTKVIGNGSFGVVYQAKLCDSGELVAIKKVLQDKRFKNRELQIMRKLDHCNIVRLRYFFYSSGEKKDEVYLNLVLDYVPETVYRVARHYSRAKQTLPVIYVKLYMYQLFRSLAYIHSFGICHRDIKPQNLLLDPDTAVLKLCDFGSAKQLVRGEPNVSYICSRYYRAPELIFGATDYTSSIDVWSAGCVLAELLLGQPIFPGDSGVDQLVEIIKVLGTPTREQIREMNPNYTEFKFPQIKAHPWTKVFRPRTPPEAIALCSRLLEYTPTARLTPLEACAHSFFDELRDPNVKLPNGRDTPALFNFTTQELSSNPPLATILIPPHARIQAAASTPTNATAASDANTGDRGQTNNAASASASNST
So I've got a bunch of compounds here, and I need their EC50 values.

For this compound ( COc1ccc(C(=O)OCCc2ccc(O)cc2)cc1 ), measured EC50 is > 300 µM

For this compound ( O=C(Nc1ccc2c(c1)OCO2)Nc1ccccn1 ), measured EC50 is > 300 µM

For this compound ( CSc1nnnn1-c1c(C)cccc1C ), measured EC50 is > 300 µM

For this compound ( O=C(CN1CCN(Cc2ccccc2Cl)CC1)NN=Cc1ccccn1 ), measured EC50 is 51.5 µM

For this compound ( COc1ccc(CN(CC(=O)NCc2ccccc2)C(=O)CCC(=O)Nc2nccs2)cc1 ), measured EC50 is > 300 µM

For this compound ( Cc1[nH]nc2c1C(c1cccs1)C1C(=O)CCCC1=N2 (stereo not given) ), measured EC50 is 10.6 µM

For this compound ( O=C(CCSc1nnc(-c2ccncc2)o1)Nc1ccc(F)cc1 ), measured EC50 is > 300 µM

For this compound ( O=C(OCCCOC(=O)c1ccc(O)cc1)c1ccc(O)cc1 ), measured EC50 is 1.84 µM

For this compound ( Cc1ccc(-n2c(N)c(C(=O)NCc3cccnc3)sc2=S)cc1 ), measured EC50 is > 300 µM

For this compound ( O=c1c(O)c(-c2ccc(O)cc2)oc2cc(O)cc(O)c12 ), measured EC50 is 11.6 µM

For this compound ( CNc1nc(N)c([N+](=O)[O-])c(Nc2cccc(Cl)c2)n1 ), measured EC50 is 11.7 µM

For this compound ( CC(C)N1C(=O)C(=CNCc2cccnc2)C(=O)NC1=S ), measured EC50 is > 300 µM

For this compound ( COc1cc2c(cc1O)C[C@H]1NCCc3cc4c(c-2c31)OCO4 ), measured EC50 is 16.3 µM

For this compound ( COc1cccc2cc(C(=O)OCc3ccccc3)c(=O)oc12 ), measured EC50 is > 300 µM

For this compound ( Nc1nc(S)c2ncn(C3OC(CO)C(O)C3O)c2n1 (stereo not given) ), measured EC50 is > 300 µM

For this compound ( CCCN(CCC)Cc1c(C(=O)NN=CCCc2ccccc2)nnn1-c1nonc1N ), measured EC50 is 7.47 µM

For this compound ( COc1ccc(CC(=O)Nc2nc(-c3ccccc3)c(C(C)=O)s2)cc1OC ), measured EC50 is 7.48 µM

For this compound ( CC1(C)CC(=O)C(C2(O)C(=O)Nc3ccccc32)CO1 (stereo not given) ), measured EC50 is > 300 µM

For this compound ( CC1=C(C#N)C(=O)NC(=O)C1=CNc1ccc(S(=O)(=O)CCO)cc1 ), measured EC50 is > 300 µM

For this compound ( CC(C)Nc1nc(N=C(N)S)nc(NC(C)C)n1 ), measured EC50 is > 300 µM

For this compound ( Cn1c(SCc2nc(-c3ccccc3)no2)nnc1-c1ccco1 ), measured EC50 is > 300 µM

For this compound ( O=C(Nc1ccc(O)c2c(=O)cc(-c3ccccc3Cl)oc12)c1ccccc1Cl ), measured EC50 is > 300 µM

For this compound ( Cc1cc(CNC(=O)c2cc(COc3c(F)cccc3F)on2)nn1C ), measured EC50 is > 300 µM

For this compound ( Cc1cc(CNC(=O)C(C)n2cc([N+](=O)[O-])cn2)c2ccccc2n1 (stereo not given) ), measured EC50 is > 300 µM

For this compound ( Cc1cn(C2OC(COC(=O)c3ccccc3)C(O)C2O)c(=O)[nH]c1=O (stereo not given) ), measured EC50 is 19.2 µM

For this compound ( CCN1CCCC1CNC(=O)c1ccc2c(c1)NC(=O)/C(=C\c1ccc(OC)c(OC)c1)S2 (stereo not given) ), measured EC50 is 6.6 µM

For this compound ( COc1cc(C=NNC(=O)COc2ccccc2[N+](=O)[O-])ccc1OC(=O)c1ccco1 ), measured EC50 is > 300 µM

For this compound ( Nc1ncnc(Nc2cccc(C(F)(F)F)c2)n1 ), measured EC50 is > 300 µM

For this compound ( COCCOC(=O)c1c(C)oc2ccc(OC(=O)c3cccs3)cc12 ), measured EC50 is > 300 µM

For this compound ( COc1ccc(-c2nnc3ccc(SCc4ccccc4)nn23)cc1 ), measured EC50 is 31.7 µM
